Biological target: SSTR4 (Homo sapiens (Human))
Sequence (P31391 whole entry): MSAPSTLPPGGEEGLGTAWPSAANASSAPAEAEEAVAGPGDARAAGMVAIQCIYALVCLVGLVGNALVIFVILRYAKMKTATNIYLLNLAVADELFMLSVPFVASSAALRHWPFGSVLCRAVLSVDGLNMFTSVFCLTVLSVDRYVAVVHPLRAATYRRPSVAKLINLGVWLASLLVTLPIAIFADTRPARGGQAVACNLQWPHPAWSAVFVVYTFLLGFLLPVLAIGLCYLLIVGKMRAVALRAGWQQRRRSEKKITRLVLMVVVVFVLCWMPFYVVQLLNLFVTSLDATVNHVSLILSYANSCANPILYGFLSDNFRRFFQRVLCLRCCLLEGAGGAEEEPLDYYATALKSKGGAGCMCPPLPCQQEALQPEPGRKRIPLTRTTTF
Assay: Inhibition of forskolin stimulated cAMP in CHO-K1 cells overexpressing SSTR4
Assay type: cell-based
Settings: read-out: SSTR4 Activity pEC50 (converted)
measured_metric: EC50 (nM)
Give bare numbers, in nM.

Here's what some known entries look like.
1) CC[C@@H]1CN(C)CC[C@H]1NC(=O)C(C)(C)COc1ncccc1C (racemic) :: 12.6
2) CC[C@@H]1CN(C)CC[C@H]1NC(=O)C(C)(C)COc1ncccc1C(F)(F)F (single isomer, unassigned) :: 1
3) C[C@@H]1CN(C)CC[C@H]1NC(=O)C(F)(F)COc1ncccc1C1CC1 (relative stereo) :: 12.6

Query: Under SSTR4 (Homo sapiens (Human)): EC50 value of CN1CC[C@@H](NC(=O)C(C)(C)COc2ncccc2C(F)(F)F)[C@H](c2cnn(C(F)F)c2)C1 (racemic) ?
Reply: 1.58
